- Tested on: MS2 coat protein
- protocol: apparent KD of MS2 coat protein; designed switch direction (-1 OFF switch, 1 ON switch): -1; higher = weaker reporter binding
- conditions: input ligand: none
Respond with Met for apparent KD of MS2 coat protein values of 0.09 µM and above, Not met for values below.

Below, 4 sequences whose answers are already recorded.
| residue.codes | label.class |
| --- | --- |
| UUUAAGUCAGGAUAUACAUGAGGAUCACCCAUGUAAAAUUUUAAUUUAAUUUGAAGGUGUAGAAGGGACAAAUU [Ex3 #37] (Eterna round: R97, puzzle: Exclusion 3) | Not met |
| AACAUGAGGAUCACCCAUGUGGGUCCUCUGUGGCAGCGAGACGAGGAUAUCAAUGGAGGGCCAGGUGAGAAGGUGUACGAUCAU [Eternabot solution 28] (Eterna round: R96, puzzle: Exclusion NG 3) | Met |
| CGGCUACGAUGAGGAUAUACGCACAUGAGGAUCACCCAUGUAAAUCACGGGUAAAGAUCGUCAUCGUAGAAGGCAUAAGGGCCC [Ormale] (Eterna round: R96, puzzle: Exclusion NG 2) | Not met |
| GGAAGGUGAGGAUAUACUAAGCCGGAAACGGCAGGUGAGAGACAUGAGGAUCACCCAUGUAGAAGGCACGGAGA [AK-MS2ROC-r4-exclusion2-17] (Eterna round: R97, puzzle: Exclusion 2) | Not met |

Would you kindly look at the next entry?
# bool: apparent KD of MS2 coat protein of AAAGGGUCAGGAUAUCCUGUGAAGAAGAAGUUGUUGUCGCGGGAGAAGGGACAUGAGGAUCACCCAUGUAGAGC [A Simple Submission] (Eterna round: R97, puzzle: Exclusion 4) >= 0.09 µM
Not met
